Documented GI50 across a set of compounds
tested on: NCI-H522; experiment: NCI tumour cell line growth inhibition, 48 h
Calls of active or inactive are those of the source. No stated cut-off is given here; in the data, active = GI50 up to about 1.1 µM and inactive = higher.

Some solved entries appear below for comparison.
| Compound | Recorded Measurement |
| --- | --- |
| CC1=NN(c2ccccc2)C(=O)C12[C@H](c1ccccc1)C2(C#N)C#N (stereo partly specified) | 2.88 µM (inactive) |
| CC(=O)Nc1ccc(C2C(C(=O)Nc3ccccc3C)=C(C)NC(C)=C2C(=O)Nc2ccccc2C)cc1 | > 100 µM (inactive) |
| Cc1c(/N=N/c2ccc(Cl)cc2)c(C)n(C2OC(CO)C(O)C(O)C2O)c(=S)c1C#N (stereo unspecified) | 20 µM (inactive) |
| O=C1NC(N2CCCC(CO)C2)=N/C1=C\c1ccc(O)cc1 (stereo unspecified) | > 100 µM (inactive) |
| NCCCCNCCCNC(=O)c1nc(-c2nc(CCN)sc2Cl)sc1Cl | 21 µM (inactive) |

Look up GI50 for this compound: COCCCNC(=O)C1=C(C)NC(C)=C(C(=O)NCCCOC)C1
9.23 µM (inactive)

Which GI50 is reported for this compound? Cc1cccc(C(=O)O)c1CC1NCCC2c3ccccc3NC12 (stereo unspecified)
> 100 µM (inactive)

Return reported GI50; argument: CC(=O)C1C(=O)N(C(C)C)C[C@@H]2CCC(=O)C[C@H]12 (stereo partly specified)
> 100 µM (inactive)

Which GI50 value is on record for CN(C)Cc1cc(C(=O)/C=C/c2ccc(F)cc2)cc(CN(C)C)c1O ?
15.2 µM (inactive)

Need GI50, item CCn1c(SCC(=O)N/N=C/c2ccccc2)nc2ccccc2c1=O
3.7 µM (inactive)

Endpoint output: GI50 of NC(=O)C(=O)N/N=C(\CC1(O)C(=O)Nc2ccccc21)c1ccc2ccccc2c1 (stereo unspecified) . Value?
18.7 µM (inactive)

Can you look up the measured GI50 of COC(=O)/C=C1/OC(c2ccccc2)=CC1=O for me?
16.9 µM (inactive)

Which value of GI50 has been reported for c1csc(-c2cc(-c3cccs3)c(-c3cccs3)s2)c1 in the records?
69.3 µM (inactive)

# query: GI50 of entry O=C1NC(=O)C(CC2CCCCCCCCCCC2=O)C(=O)N1 (stereo unspecified)
> 100 µM (inactive)

// GI50 lookup, key: O=C(NS(=O)(=O)OCC(Cl)(Cl)Cl)SCCC(F)(F)C(F)(F)C(F)(F)C(F)(F)C(F)(F)C(F)(F)F
20 µM (inactive)

Item under review: O=C1c2ccccc2C(=O)c2sc(Nc3ccc([N+](=O)[O-])cc3)nc21 . Reported GI50?
2.55 µM (inactive)

Fill in: GI50 of CN(C)CCCN1C(=O)N(CCCN(C)C)c2c3cc(O)ccc3nc3c([N+](=O)[O-])ccc1c23 is ___
6.92 µM (inactive)

Requested read-out: GI50. Entry: N#CC(C#N)=C1C(C#N)=C(N)NC12OCCO2
> 100 µM (inactive)
